Hey, just so you know, these numbers are from patent US20180022794A1.

The following binders are shown together with reported pKd values.
- Tested system: T1, RhoA Q63L (UniProt P61586 1-190, limits assumed)
- T1 construct: also called RhoA Q63L (2SHA); constitutively active RhoA mutant
- T1 sequence (P61586 1-190 Q63L limits assumed): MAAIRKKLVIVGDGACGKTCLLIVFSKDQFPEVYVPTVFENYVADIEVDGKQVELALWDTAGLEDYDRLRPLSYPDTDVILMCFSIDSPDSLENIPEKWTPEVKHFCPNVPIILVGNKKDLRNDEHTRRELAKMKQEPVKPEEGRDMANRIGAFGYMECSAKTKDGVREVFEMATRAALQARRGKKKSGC
- Experiment summary: binding kinetics, method not stated (Table 1)
pKd (log units): -log10 of the concentration in mol/L.

[[record]]
binder = "B6 hs2dAb (VHH, also called hs2dAb B6) VHH: VQLQASGGGFVQPGGSLRLSCAASGYGSTIETMGWFRQAPGKEREFVSAISRAPGPSQYYADSVKGRFTISRDNSKNTVYLQMNSLRAEDTATYYCAPINNRTMQDSMFLWNYWGQGTQVTVSS"
observation_type = "pKd"
endpoint_result = 8.88

[[record]]
binder = "4SNP61 hs2dAb (VHH) VHH: VQLQASGGGFVQPGGSLRLSCAASGFTSTSTVMGWFRQAPGKEREFVSAISSAHTMDTYYADSVKGRFTISRDNSKNTVYLQMNSLRAEDTATYYCAPAPMLGQMITQPALPYWGQGTQVTVSS"
observation_type = "pKd"
endpoint_result = 8.92

[[record]]
binder = "5SNP48 hs2dAb (VHH) VHH: VQLQASGGGFVQPGGSLRLSCAASGTSWFTEVMGWFRQAPGKEREFVSAISGLHDVGTYYADSVKGRFTISRDNSKNTVYLQMNSLRAEDTATYYCAALDKWYTKAMDARKDYWGQGTQVTVSS"
observation_type = "pKd"
endpoint_result = 9.08


Request: Check the records and state pKd for 5SNP65 hs2dAb (VHH) VHH: VQLQASGGGFVQPGGSLRLSCAASGATYEGEAMGWFRQAPGKEREFVSAISSYPSVISYYADSVKGRFTISRDNSKNTVYLQMNSLRAEDTATYYCAYWVNHEGTIREIYWGQGTQVTVSS
Response: 9.22
